Test system: SW1353
assay_overview: relative viability vs DMSO control (72 h) (fraction); higher = more viable cells
condition_label: 1.111 µM
quantity_kind: relative viability
Lab note: record the figure alone, no unit after it.

1. O=C(Nc1nc2cccc(-c3ccc(CN4CCS(=O)(=O)CC4)cc3)n2n1)C1CC1	1
2. Cn1cc(C2=C(c3cn(C4CCN(Cc5ccccn5)CC4)c4ccccc34)C(=O)NC2=O)c2ccccc21	0.949

Read the next record carefully.
Recorded relative viability (molecule N#CC1(c2ccc(NC(=O)c3cccnc3NCc3ccncc3)cc2)CCCC1 ): 0.935

###

Listing of recorded relative viability by entry.
Test system: KHOS-240S
assay_overview: relative viability vs DMSO control (72 h) (fraction); higher = more viable cells
condition_label: 0.3704 µM
Write the number on its own, no unit after it.

Some entries whose results are on file:
1) CC1(COc2ccc3c(c2)ncn3-c2ccc3cccc(N4CCC(N)CC4)c3n2)COC1	0.963
2) CC(C)Oc1ccc(-c2nn([C@@H](C)c3oc4ccc(F)cc4c(=O)c3-c3cccc(F)c3)c3ncnc(N)c23)cc1F	1.06
3) Cn1ncnc1[C@H]1c2n[nH]c(=O)c3cc(F)cc(c23)N[C@@H]1c1ccc(F)cc1	0.824

// next item, relative viability requested
Tested on KHOS-240S, the item COC(=O)[C@@]1(O)C[C@H]2O[C@]1(C)n1c3ccccc3c3c4c(c5c6ccccc6n2c5c31)C(=O)NC4 [K-252a] showed relative viability equal to 0.553

###

Catalogue of compounds with associated relative viability
System: RD
assay_overview: relative viability vs DMSO control (72 h) (fraction); higher = more viable cells
condition_label: 0.3704 µM
Form: value (number only, do not type unit).

Study these solved cases before continuing.
1) COc1cc(CCc2cc(NC(=O)c3ccc(N4CC(C)NC(C)C4)cc3)n[nH]2)cc(OC)c1 (stereo not drawn) [AZD-4547]	1.08
2) Cn1ncnc1[C@H]1c2n[nH]c(=O)c3cc(F)cc(c23)N[C@@H]1c1ccc(F)cc1 [Talazoparib]	0.718
3) CC(C)NC[C@@H](C(=O)N1CCN(c2ncnc3c2[C@H](C)C[C@H]3O)CC1)c1ccc(Cl)cc1 [Ipatasertib]	0.916

Bench note, RD: COc1cc(OC)c(/C=C/S(=O)(=O)Cc2ccc(OC)c(NCC(=O)O)c2)c(OC)c1 [Rigosertib] , relative viability reads 0.372

Reading of relative viability for CC1(COc2ccc3c(c2)ncn3-c2ccc3cccc(N4CCC(N)CC4)c3n2)COC1 [Crenolanib] with RD: 1.1

Case CCC(=O)N1CC[C@H](Nc2ncnc3c2CN(c2cnc(OC)c(C(F)(F)F)c2)CC3)C1 [Leniolisib] , RD, relative viability recorded as 1.11

Let me check: CC(C)(C)c1nc(-c2cccc(NS(=O)(=O)c3c(F)cccc3F)c2F)c(-c2ccnc(N)n2)s1 [Dabrafenib] , system RD, measured relative viability is 0.989

I looked up O=C1NC(=O)[C@@H](c2cn3c4c(cccc24)CCC3)[C@@H]1c1c[nH]c2ccccc12 [Tivantinib] and its relative viability for RD was 0.81

###

System: SW1353
assay_overview: relative viability vs DMSO control (72 h) (fraction); higher = more viable cells
condition_label: 0.1235 µM
quantity_kind: relative viability
Write the number on its own, no unit after it.

1. Cc1cc2c(F)c(Oc3ncnn4cc(OC[C@@H](C)O)c(C)c34)ccc2[nH]1	0.944
2. CN1CCN(c2ccc(C(=O)Nc3n[nH]c4ccc(Cc5cc(F)cc(F)c5)cc34)c(NC3CCOCC3)c2)CC1	0.989

Looking up CCc1cnn2c(NCc3ccc[n+]([O-])c3)cc(N3CCCC[C@H]3CCO)nc12 , I found its relative viability recorded as 0.238

GET /value?item= CC(C)(O)CNc1nc(Nc2ccnc(C(F)(F)F)c2)nc(-c2cccc(C(F)(F)F)n2)n1 &field=relative viability returns 1.01

Query Cc1cc2cc(Oc3ccnc(Nc4cccc(CS(=O)(=O)NCCN(C)C)c4)n3)ccc2[nH]1 yields relative viability of 0.964

###

Tested on: A204
assay_overview: relative viability vs DMSO control (72 h) (fraction); higher = more viable cells
condition_label: 1.111 µM
This section presents compounds with their documented relative viability values.
Answer with a bare number; do not write a unit.

1) N#CCNC(=O)c1ccc(-c2ccnc(Nc3ccc(N4CCOCC4)cc3)n2)cc1	0.646
2) CC[C@@H]1CN(C(=O)NCC(F)(F)F)C[C@@H]1c1cnc2cnc3[nH]ccc3n12	1.03
3) CNC(=O)c1nnc(NC(=O)C2CC2)cc1Nc1cccc(-c2ncn(C)n2)c1OC	1.11
4) O=S(=O)(c1cccc2cnccc12)N1CCCNCC1	0.991
5) Cn1ncnc1[C@H]1c2n[nH]c(=O)c3cc(F)cc(c23)N[C@@H]1c1ccc(F)cc1	0.576

Lab book: relative viability of C[C@H](Nc1ncnc2nc[nH]c12)c1cc2cccc(Cl)c2c(=O)n1-c1ccccc1 noted as 0.761

Value of measured relative viability for the entry CCC(=O)N1CC[C@H](Nc2ncnc3c2CN(c2cnc(OC)c(C(F)(F)F)c2)CC3)C1 : 0.897

###

Overview of recorded relative viability for various compounds
System: SW872
assay_overview: relative viability vs DMSO control (72 h) (fraction); higher = more viable cells
condition_label: 3.333 µM

Please review the entries below; each comes with its answer.
1) Cn1cc(C2=C(c3cn(C4CCN(Cc5ccccn5)CC4)c4ccccc34)C(=O)NC2=O)c2ccccc21 [Enzastaurin]	1.06
2) N#CCNC(=O)c1ccc(-c2ccnc(Nc3ccc(N4CCOCC4)cc3)n2)cc1 [Momelotinib]	0.733
3) COC(=O)N[C@@H](C)CNc1nccc(-c2cn(C(C)C)nc2-c2cc(Cl)cc(NS(C)(=O)=O)c2F)n1 [Encorafenib]	0.335

Please look at the following compound next.
Memo: N#CC1(c2ccc(NC(=O)c3cccnc3NCc3ccncc3)cc2)CCCC1 [Apatinib] , reported relative viability: 1.03

###

Test system: SK-ES-1
assay_overview: relative viability vs DMSO control (72 h) (fraction); higher = more viable cells
condition_label: 0.00017 µM
# Lookup of reported relative viability keyed by entry
The reply should be a number, written without any unit.

1. O=C(Nc1ccc(OC(F)(F)Cl)cc1)c1cnc(N2CC[C@@H](O)C2)c(-c2cc[nH]n2)c1	0.975
2. Cn1cc(C2=C(c3cn(C4CCN(Cc5ccccn5)CC4)c4ccccc34)C(=O)NC2=O)c2ccccc21	1.09

Now for the compound whose relative viability we want.
Consider N#CC1(c2ccc(NC(=O)c3cccnc3NCc3ccncc3)cc2)CCCC1 . Its measured relative viability is 0.968

###

Tested on: SW872
assay_overview: relative viability vs DMSO control (72 h) (fraction); higher = more viable cells
condition_label: 10 µM
We begin with a simple list: items and their reported relative viability.
The answer should be a number; do not append a unit.

1) Cc1cc2cc(Oc3ccnc(Nc4cccc(CS(=O)(=O)NCCN(C)C)c4)n3)ccc2[nH]1	0.526
2) O=C1NC(=O)[C@@H](c2cn3c4c(cccc24)CCC3)[C@@H]1c1c[nH]c2ccccc12 [Tivantinib]	0.467
3) CN1CCN(c2ccc(C(=O)Nc3n[nH]c4ccc(Cc5cc(F)cc(F)c5)cc34)c(NC3CCOCC3)c2)CC1	0.218
4) O=C(Nc1nc2cccc(-c3ccc(CN4CCS(=O)(=O)CC4)cc3)n2n1)C1CC1	0.933
5) CNC(=O)c1nnc(NC(=O)C2CC2)cc1Nc1cccc(-c2ncn(C)n2)c1OC	0.768

relative viability for CCN(CC)CCNC(=O)c1c(C)[nH]c(/C=C2\C(=O)Nc3ccc(F)cc32)c1C is -0.00493

Per the records, this compound ( CN1CC[C@@H](NC(=O)Nc2ccc(C#N)cc2)C[C@@H]1c1nc2ccccc2[nH]1 ) has relative viability equal to 1.06

Cn1ncnc1[C@H]1c2n[nH]c(=O)c3cc(F)cc(c23)N[C@@H]1c1ccc(F)cc1 yielded relative viability of 0.34

###

System: SK-LMS-1
assay_overview: relative viability vs DMSO control (72 h) (fraction); higher = more viable cells
condition_label: 10 µM
Listing of recorded relative viability by entry.
Keep it simple and answer with nothing but the number.

Here's what some known entries look like.
1) N#CCNC(=O)c1ccc(-c2ccnc(Nc3ccc(N4CCOCC4)cc3)n2)cc1 [Momelotinib]	0.886
2) CCC(=O)N1CC[C@H](Nc2ncnc3c2CN(c2cnc(OC)c(C(F)(F)F)c2)CC3)C1 [Leniolisib]	0.712
3) O=S(=O)(c1cccc2cnccc12)N1CCCNCC1 [Fasudil]	0.977

O=C1NC(=O)[C@@H](c2cn3c4c(cccc24)CCC3)[C@@H]1c1c[nH]c2ccccc12 [Tivantinib] has a reported relative viability of 0.301

###

Let's look at some molecules and their measured relative viability.
Test system: SW872
assay_overview: relative viability vs DMSO control (72 h) (fraction); higher = more viable cells
condition_label: 0.1235 µM
Write the value as a bare number.

1) CC[C@@H]1CN(C(=O)NCC(F)(F)F)C[C@@H]1c1cnc2cnc3[nH]ccc3n12 [Upadacitinib]	1.01
2) CCN1C(=O)N(c2c(F)c(OC)cc(OC)c2F)Cc2cnc3[nH]c(CN4CCOCC4)cc3c21 [Pemigatinib]	0.964
3) CN1CC[C@@H](NC(=O)Nc2ccc(C#N)cc2)C[C@@H]1c1nc2ccccc2[nH]1 [Glasdegib]	1.06
4) COC(=O)N[C@@H](C)CNc1nccc(-c2cn(C(C)C)nc2-c2cc(Cl)cc(NS(C)(=O)=O)c2F)n1 [Encorafenib]	0.555
5) Cn1cc(C2=C(c3cn(C4CCN(Cc5ccccn5)CC4)c4ccccc34)C(=O)NC2=O)c2ccccc21 [Enzastaurin]	1.04

Okay, now this molecule:
Entry Cn1ncnc1[C@H]1c2n[nH]c(=O)c3cc(F)cc(c23)N[C@@H]1c1ccc(F)cc1 [Talazoparib] — recorded relative viability = 0.905
